System: A549 NSCLC
Protocol details: NCI tumour cell line growth inhibition, 48 h
Value type: TGI

Some compounds with recorded TGI:
# Compound, TGI
rows = [
    ("Nc1nc2ccc(-c3nc4ccc5[nH]ncc5c4c4c3CCC4)cc2s1", "23.9 µM"),
    ("Nc1n(CC(=O)c2ccccc2)nc2sc(-c3ccccc3)n[n+]12", "90.6 µM"),
    ("C/C(CC(O)(C(F)(F)F)C(F)(F)F)=N\\NC(N)=O", "> 10 µM"),
]

Tell me the measured TGI of CCOC(=O)NC(=O)c1cn(CCN2CCN(C(=O)NCCCCCCNC(=O)N3CCN(CCn4cc(C(=O)NC(=O)OCC)c(=O)[nH]c4=O)CC3)CC2)c(=O)[nH]c1=O , please.
> 100 µM

Likewise for COc1cc2c(c(O)c1O)C(=O)C1CCC(=O)N1C2c1cccc2ccccc12 (stereo not given) ?
> 50 µM

Likewise for Cc1cc([NH-])c([NH-])cc1C.[Cl][Pt+2][Cl] ?
> 100 µM

Likewise for CCN1C(=O)N(CC)C2C1NN=c1s/c(=C\c3ccc(Cl)cc3Cl)c(=O)n12 (stereo not given) ?
> 55.5 µM

Likewise for COC(=O)C1=C(O)C(C(=O)OC)C2CC(=O)CC1C2(C)C (stereo not given) ?
> 100 µM

Likewise for O=C(O)CCc1nc2c(n1-c1ccccc1)C(=O)c1ccccc1C2=O ?
> 100 µM

Likewise for CCOC(=O)Cc1nc2ccc3c(c2[nH]c1=O)C(=O)c1ccccc1C3=O ?
> 100 µM
